Measured Endpoint: melting point

Some molecules with known melting point results, for comparison:
Cc1nn(C2CCCC2O)c(N)c1C#N (centres undefined)
157 to 159 °C
CCOC(=O)c1c(C2CC2)nn(CC)c1Cc1ccc(-c2ccccc2-c2nnn(C(c3ccccc3)(c3ccccc3)c3ccccc3)n2)cc1
164 to 168 °C
COc1cccc(S(=O)(=O)N2C3CCC2CN(CC(=O)Nc2ccccc2C)C3)c1
163 to 165 °C

Let us move to another entry and its melting point.
Retrieve melting point measured for CSc1nnc2n1C=Cc1ccccc1C2c1ccccc1 (centres undefined) and print it.
169 to 170 °C

* * *

Measured Endpoint: melting point

Some compounds with known melting point results, for comparison:
O=Cc1ccc(-c2ccccc2)cc1Cl
90 to 91 °C
c1cn2nc(N3CCOCC3)c3c(c2n1)CCCC3
160 to 161 °C
C=CC(=O)Oc1ccc(N2C(=O)C(=C(C)C)/C(=C(\c3cc(C)oc3C)C(C)C)C2=O)cc1
50 to 52 °C

Retrieve melting point measured for Cc1ccc(C(=O)Nc2cc(Cl)c(O)c(Cl)c2)c(O)c1 and print it.
246 to 247 °C

Retrieve melting point measured for O=C1C(=O)c2c(nc3ccccn23)-c2cccc(Br)c21 and print it.
> 260 °C

Retrieve melting point measured for CCn1c(=O)c2[nH]c(C(C)C)nc2n(Cc2ccc3c(c2)OCO3)c1=O and print it.
200 to 232 °C
